Assay: BSK_3C_SRB: Viability Assessment in the BioMAP Diversity Plus: 3C Assay (AID 2283023);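 note: cells read 24 h after compound dosing; fitted both ways against DMSO so a hit may be signal rise or drop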
Settings: primary human endothelial cells (HUVEC)
Active and inactive are the calls of the source. Rule for the calls: active = hit-call score of the fitted dose curve at least 0.9, where 1 is the maximum; inactive = score below 0.9.
Result category, one only: active, inactive

compound: C[Si]1(C)O[Si](C)(C)O[Si](C)(C)O[Si](C)(C)O1
class-name: inactive
//
compound: CCCCCCCCCCCCCO
class-name: active

Could you now consider this next molecule?
Q) Please state the recorded outcome for this molecule: "Cc1cccc(C)c1O"
A) inactive

====

Target: Signal transducer and activator of transcription 3 (Homo sapiens) (UniProt P40763)
Sequence (P40763 whole entry, looked up): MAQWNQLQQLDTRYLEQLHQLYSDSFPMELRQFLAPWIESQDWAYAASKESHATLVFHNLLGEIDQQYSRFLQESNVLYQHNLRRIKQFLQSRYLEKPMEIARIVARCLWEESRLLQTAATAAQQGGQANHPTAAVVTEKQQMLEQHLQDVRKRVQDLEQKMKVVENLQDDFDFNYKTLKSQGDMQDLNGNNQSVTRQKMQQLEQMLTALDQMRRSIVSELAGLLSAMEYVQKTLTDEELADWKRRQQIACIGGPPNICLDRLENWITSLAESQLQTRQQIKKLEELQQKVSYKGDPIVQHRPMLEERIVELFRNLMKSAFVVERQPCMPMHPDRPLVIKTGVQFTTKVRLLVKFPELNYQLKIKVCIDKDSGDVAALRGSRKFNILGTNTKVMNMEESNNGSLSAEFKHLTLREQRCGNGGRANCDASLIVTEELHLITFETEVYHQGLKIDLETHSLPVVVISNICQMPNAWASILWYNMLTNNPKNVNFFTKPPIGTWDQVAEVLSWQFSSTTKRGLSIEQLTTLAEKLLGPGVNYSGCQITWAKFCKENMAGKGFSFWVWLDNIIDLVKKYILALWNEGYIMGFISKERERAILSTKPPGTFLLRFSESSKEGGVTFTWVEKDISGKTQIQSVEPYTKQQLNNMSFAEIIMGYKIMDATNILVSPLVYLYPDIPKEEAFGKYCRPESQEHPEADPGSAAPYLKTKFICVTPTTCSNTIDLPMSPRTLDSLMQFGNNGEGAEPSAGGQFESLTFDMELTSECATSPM
Assay: ATG_STAT3_CIS: Attagene CIS-FACTORIAL HepG2 Assay for human Signal Transducer and Activator of Transcription 3 (STAT3) (AID 2282963)
Details: HepG2, Attagene cis-factorial STAT3 reporter transcription; actives raise or lower the signal
Activity calls are given as the source filed them. Rule for the calls: active = hit-call score of the fitted dose curve at least 0.9, where 1 is the maximum; inactive = score below 0.9.
The reply should name one outcome from active, inactive

compound: CCCCN(CCCC)CCCC
subject-of-test: Signal transducer and activator of transcription 3 (Homo sapiens) (UniProt P40763)
class-name: inactive

compound: CCCCCCOCCO
subject-of-test: Signal transducer and activator of transcription 3 (Homo sapiens) (UniProt P40763)
class-name: inactive

compound: O=c1[nH]cc(F)c(=O)[nH]1
subject-of-test: Signal transducer and activator of transcription 3 (Homo sapiens) (UniProt P40763)
class-name: inactive

compound: CCOC(=O)CCC(=O)OCC
subject-of-test: Signal transducer and activator of transcription 3 (Homo sapiens) (UniProt P40763)
class-name: inactive

compound: Cc1ccc(C)c(C)c1
subject-of-test: Signal transducer and activator of transcription 3 (Homo sapiens) (UniProt P40763)
class-name: inactive

compound: COc1ccc(S(=O)(=O)N2C(=O)[C@@](c3ccccc3OC)(N3C[C@H](O)C[C@H]3C(=O)N(C)C)c3cc(Cl)ccc32)c(OC)c1
subject-of-test: Signal transducer and activator of transcription 3 (Homo sapiens) (UniProt P40763)
class-name: inactive

Q) // return assay outcome for "CC(C)(C)c1cc(O)c(C(C)(C)C)cc1O"
A) inactive

Q) Please indicate how the test categorized "CC(=O)OCCOCCOCCOC(C)=O" .
A) inactive

Q) For "Cc1nc(C)nc(N2C[C@@H](C)N(c3ccnc([C@@H](C)O)n3)[C@@H](C)C2)n1" , what call appears in the results of this test?
A) inactive

Q) Name the outcome recorded for "C[Si]1(C)O[Si](C)(C)O[Si](C)(C)O[Si](C)(C)O1" in the assay.
A) inactive

Q) Dear colleague, could you share the recorded outcome for "CCCCCCCCCCCCCCCC" when you have a moment?
A) inactive

Q) Kindly provide the recorded test outcome for the following compound: "COc1cc(/C=C/C(=O)CC(=O)/C=C/c2ccc(O)c(OC)c2)ccc1O"
A) inactive

Q) Hi, do you know how "O=[N+]([O-])C(CO)(CO)CO" came out in this test?
A) inactive

Q) What call does the record list for "Nc1ccc2c(c1)C(=O)c1ccccc1C2=O" ?
A) inactive

Q) What call does the record list for "COCCOCCOC" ?
A) inactive

Q) Test call for this compound, please: "CCCCc1ccc2c(n1)[C@@H](c1ccc(OC)cc1C[C@H](C)C(=O)O)[C@H](C(=O)O)[C@H]2c1ccc2c(c1)OCO2"
A) inactive

Q) Could you kindly confirm the outcome this assay logged for "O=C(O)Cc1ccccc1Nc1c(Cl)cccc1Cl" ?
A) inactive

Q) Fill in: this test's call for "CC=Cc1ccc(O)c(OC)c1" is ___
A) inactive

Q) Just curious, what result did "CCOc1ccc2c(c1)C(C)=CC(C)(C)N2" get here?
A) inactive
